PROPERTY: melting point

Use these answered entries as a reference point.
Cc1c(N2CCCC(CN)C2)c(F)cc2c(=O)n(N)c(=O)n(C3CC3)c12.Cl (centres unmarked); 219 to 221 °C
COc1cc2c(=O)n(N)c(=O)n(C3CC3)c2c(F)c1N1CCC(N)C1.Cl (centres unmarked); 208 to 210 °C
C[C@@H]1CN(c2c(F)cc3c(=O)n(N)c(=O)n(C4CC4)c3c2Cl)C[C@H]1CN.Cl (relative stereo); 215 to 217 °C

Dear colleague, could you send me melting point for each of the items below? Thanks.
1. CC(C)(N)[C@@H]1CCN(c2nc3c(cc2F)c(=O)n(N)c(=O)n3C2CC2)C1.Cl
2. Cc1c(N2CC(C)C(C(C)N)C2)c(F)cc2c(=O)n(N)c(=O)n(C3CC3)c12.Cl (centres unmarked)

1. > 260 °C
2. 240 °C
